- measured.target: DLG2_3, Q15700
- test.description: holdup assay
- Parameters: key: below the threshold = too weak to quantify, mostly under pKd 3.1 to 4
- test.parameters: plain residues with an end cap or a label only (N-terminal biotin on a linker: ttds)
reported.metric: pKd
Give the figure only, with no unit attached.

Check out these entries, answers already filled in.
- binder: "ERKLSSESQV [LRP4, O75096]"
  pKd: 4.11
- binder: "QSARYRDTEL [TJP2, Q9UDY2]"
  pKd: 3.8
- binder: "SSRTRRETQL [HPV16-E6, P03126]"
  pKd: 5.1
- binder: "PKTPPTDTSV [KIR3DL3, Q8N743]"
  pKd: 3.77

Measured pKd, SVWLRKETRV [CYSLTR2, Q9NS75] : 5.4
